# Subject of test: T1, mouse CNTN4-rabbit Fc (mouse; rabbit, UniProt Q69Z26 19-1000, limits assumed)
# T1 construct: not shown: rabbit Fc
# T1 sequence (looked up): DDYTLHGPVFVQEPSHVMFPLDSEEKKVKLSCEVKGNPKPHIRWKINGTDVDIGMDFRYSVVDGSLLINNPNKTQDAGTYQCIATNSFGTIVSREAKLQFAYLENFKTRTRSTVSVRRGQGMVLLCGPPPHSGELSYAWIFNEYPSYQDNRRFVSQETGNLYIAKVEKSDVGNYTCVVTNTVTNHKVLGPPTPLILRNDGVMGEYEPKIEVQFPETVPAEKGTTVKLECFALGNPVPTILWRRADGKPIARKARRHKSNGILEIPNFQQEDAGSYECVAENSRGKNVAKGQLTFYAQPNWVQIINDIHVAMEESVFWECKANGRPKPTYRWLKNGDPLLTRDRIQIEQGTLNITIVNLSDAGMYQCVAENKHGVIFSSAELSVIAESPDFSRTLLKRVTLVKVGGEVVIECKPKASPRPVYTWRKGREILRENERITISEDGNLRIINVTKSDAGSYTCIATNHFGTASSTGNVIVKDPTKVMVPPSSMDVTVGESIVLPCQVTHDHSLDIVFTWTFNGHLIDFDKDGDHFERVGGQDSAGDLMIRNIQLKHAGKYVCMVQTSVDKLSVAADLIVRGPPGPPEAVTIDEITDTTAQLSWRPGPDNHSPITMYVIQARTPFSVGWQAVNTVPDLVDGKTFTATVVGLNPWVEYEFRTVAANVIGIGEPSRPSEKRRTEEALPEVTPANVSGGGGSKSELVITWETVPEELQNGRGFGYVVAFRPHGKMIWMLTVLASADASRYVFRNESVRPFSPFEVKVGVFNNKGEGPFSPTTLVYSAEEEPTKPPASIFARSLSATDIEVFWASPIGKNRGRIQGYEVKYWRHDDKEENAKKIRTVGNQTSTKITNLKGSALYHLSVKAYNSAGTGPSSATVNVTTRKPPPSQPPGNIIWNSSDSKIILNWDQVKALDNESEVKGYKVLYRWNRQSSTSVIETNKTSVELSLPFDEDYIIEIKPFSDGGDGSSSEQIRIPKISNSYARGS
# Test: ELISA, plate coated with antigen-rabbit Fc, anti-human IgG Fc-HRP
# Protocol: An ELISA tests were performed on a total of 25 scFv-hCks and a total of 27 IgGs for which the expression was confirmed in Example 1.2. An ELISA plate was coated with 200 ng of antigens (human CNTN4-rabbit Fc or mouse CNTN4-rabbit Fc). 200 ng of a negative control (human antigen-rabbit Fc) for a tagging protein was used. […] Color was developed using ABTS, which is a color developing reagent, and the absorbance at 405 nm was measured.
Assay readout: pEC50
// pEC50: -log10(molar conc.)

Given item anti-CNTN4 IgG A13WB24 (antibody, V domains shown, human IgG4 (S228P)) VH: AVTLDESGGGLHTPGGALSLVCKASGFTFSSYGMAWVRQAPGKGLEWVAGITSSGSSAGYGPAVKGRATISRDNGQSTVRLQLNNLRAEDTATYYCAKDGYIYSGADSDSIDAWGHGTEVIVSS VL: ALTQPSSVSANPGGTVEITCSGGGNNNYGWYQQKSPGSAPVTLIYYNDNRPSDIPSRFSGSKSGSTATLTITGVQAEDEAVYYCGGYDISYVDIFGAGTTLTVL , the value recorded as its pEC50 is 11.00

get_value(item= anti-CNTN4 IgG A13WB7 (antibody, V domains shown, human IgG4 (S228P)) VH: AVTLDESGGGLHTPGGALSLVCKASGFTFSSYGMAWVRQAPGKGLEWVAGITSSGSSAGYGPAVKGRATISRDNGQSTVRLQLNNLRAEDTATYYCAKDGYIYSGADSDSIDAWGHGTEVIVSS VL: ALTQPSSVSANPGETVKITCSGGGSSSYYNYGWYQQKSPGSAPVTVIYYNDKRPSDIPSRFSGSKSGSTGTLTITGVQAEDEAVYYCGSWDSSTYSDIFGAGTTLTVL , readout=pEC50) returns 11.00

Recorded result, anti-CNTN4 IgG A13WB25 (antibody, V domains shown, human IgG4 (S228P)) VH: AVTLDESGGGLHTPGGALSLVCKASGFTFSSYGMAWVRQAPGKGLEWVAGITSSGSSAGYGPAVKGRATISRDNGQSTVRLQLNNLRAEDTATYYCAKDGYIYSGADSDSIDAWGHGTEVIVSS VL: ALTQPSSVSANLGGTVEITCSGGGGSYGWYQQKSPGSAPVTVIYYNDKRPSDIPSRFSGSKSGSTGTLTITGVQAEDEAVYFCGGYDGSTYAGIFGAGTTLTVL , pEC50: 11.00

The binder identified as anti-CNTN4 IgG A13WB73 (antibody, V domains shown, human IgG4 (S228P)) VH: AVTLDESGGGLHTPGGVLSLVCKASGFTFSSYGMAWVRQAPGKGLEWVAGITSSGSSAGYGPAVKGRATISRDNGQSTVRLQLNNLRAEDTATYYCAKDGYIYSGADSDSIDAWGHGTEVIVSS VL: ALTQPSSVSANLGGTVEITCSGGYSGYGWYQQMSPGSAPVTLTYYNDKRPSNIPSRFSGSKSGSTATLAITGVQAEDEAVYYCGSWDTSTNTPIFGAGTTLTVL registered its pEC50 at 11.00

# pEC50 (binder: anti-CNTN4 IgG A13SF7 (antibody, V domains shown, human IgG4 (S228P)) VH: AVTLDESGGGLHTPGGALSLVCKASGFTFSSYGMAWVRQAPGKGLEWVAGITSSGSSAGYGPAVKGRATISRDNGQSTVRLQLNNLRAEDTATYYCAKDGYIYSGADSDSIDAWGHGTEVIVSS VL: ALTQPSSVSANLGGTVEITCSGGSGSYGWYQQKSPGSAPVTLIYDNTNRPSNIPSRFSGSTSGSTSTLTITGVQADDEAVYFCGSADTNAAYAAIFGAGTTLTVL ) is 11.00

So for anti-CNTN4 IgG A35SF75 (antibody, V domains shown, human IgG4 (S228P)) VH: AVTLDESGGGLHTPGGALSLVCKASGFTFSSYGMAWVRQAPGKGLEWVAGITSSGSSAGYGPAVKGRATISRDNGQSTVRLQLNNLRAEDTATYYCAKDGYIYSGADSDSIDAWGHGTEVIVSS VL: ALTQPSSVSANPGVTVKITCSGGGGSYGWYQQKAPGSAPVTLIYNNTNRPSDIPSRFSGSRSGSTNTLTITGVQAEDEAVYFCGGYDSNTDYVGFGAGTTLTVL , the logged pEC50 turned out to be 9.70

According to the records, this binder anti-CNTN4 IgG A35SF90 (antibody, V domains shown, human IgG4 (S228P)) VH: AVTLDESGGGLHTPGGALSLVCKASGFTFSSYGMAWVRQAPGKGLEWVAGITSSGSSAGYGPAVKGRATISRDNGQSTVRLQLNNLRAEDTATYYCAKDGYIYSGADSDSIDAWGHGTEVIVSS VL: ALTQPSSVSANLGGTVEITCSGSNNNNYGWYQQKTPGSAPVTLIYNNNQRPSDIPSRFSGSKSGSTGTLTITGVRAEDEAVYYCGGYDSSIYFDIFGAGTTLTVL displays pEC50 of 11.00

Reported pEC50 for anti-CNTN4 IgG A35SF8 (antibody, V domains shown, human IgG4 (S228P)) VH: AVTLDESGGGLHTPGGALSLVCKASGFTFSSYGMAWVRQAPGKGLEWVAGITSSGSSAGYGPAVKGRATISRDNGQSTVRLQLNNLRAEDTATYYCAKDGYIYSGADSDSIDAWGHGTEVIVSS VL: ALTQPSSVSANLGGTVKITCSGGGGSYGWFQQKSPGSAPVTLIYNNNNRPSDIPSRFSGSKSGSTATLTITGVQAEDEAVYFCGGYDDSTYVGMFGAGTTLTVL was 10.70

pEC50 recorded for this binder, anti-CNTN4 IgG A13SF74 (antibody, V domains shown, human IgG4 (S228P)) VH: AVTLDESGGGLQTPGGALSLVCKASGFTLSSYAMQWVRQAPGKGLEWVAGISKGGGSTAYGAAVKGRATISRDNGQSTVRLQLNNLRAEDTATYFCAKTTDSNCCSSDSIDAWGHGTEVIVSS VL: ALTQPSSVSANPGETVKITCSGNSSGCSWYGWFQQKSPGSALVTVIYDNTNRPSNIPSRFSGSRSGSTATLTITGVQAEDEAIYFCGIADSSGAGIFGAGTTLTVL , is 9.92

The measured pEC50 associated with anti-CNTN4 IgG A35SF38 (antibody, V domains shown, human IgG4 (S228P)) VH: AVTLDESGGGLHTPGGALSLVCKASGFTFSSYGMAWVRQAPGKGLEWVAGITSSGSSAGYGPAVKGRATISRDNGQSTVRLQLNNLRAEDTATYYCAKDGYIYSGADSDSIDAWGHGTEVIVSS VL: ALTQPSSVSANLGGTVKLTCSGSSGSYGWYQQKSPGSAPVTLIYNNNNRPSDIPSRFSGSTSGSTGTLTITGVRAEDEAVYFCGGYDSSTYVAIFGAGTTLTVL reads 11.00
